# test.target: mouse ADAMTS7 (Mus musculus, UniProt Q68SA9)
# Construct: Full-length mouse Adamts7 1-1857 (Uniprot Q68SA9, WT or E373Q catalytic mutant); expressed in transfected cells; host or cells: Human Coronary Artery Smooth Muscle Cells (HCA-SMC, Lonza), adenovirus 50 MOI
# Sequence (Q68SA9 221-1657): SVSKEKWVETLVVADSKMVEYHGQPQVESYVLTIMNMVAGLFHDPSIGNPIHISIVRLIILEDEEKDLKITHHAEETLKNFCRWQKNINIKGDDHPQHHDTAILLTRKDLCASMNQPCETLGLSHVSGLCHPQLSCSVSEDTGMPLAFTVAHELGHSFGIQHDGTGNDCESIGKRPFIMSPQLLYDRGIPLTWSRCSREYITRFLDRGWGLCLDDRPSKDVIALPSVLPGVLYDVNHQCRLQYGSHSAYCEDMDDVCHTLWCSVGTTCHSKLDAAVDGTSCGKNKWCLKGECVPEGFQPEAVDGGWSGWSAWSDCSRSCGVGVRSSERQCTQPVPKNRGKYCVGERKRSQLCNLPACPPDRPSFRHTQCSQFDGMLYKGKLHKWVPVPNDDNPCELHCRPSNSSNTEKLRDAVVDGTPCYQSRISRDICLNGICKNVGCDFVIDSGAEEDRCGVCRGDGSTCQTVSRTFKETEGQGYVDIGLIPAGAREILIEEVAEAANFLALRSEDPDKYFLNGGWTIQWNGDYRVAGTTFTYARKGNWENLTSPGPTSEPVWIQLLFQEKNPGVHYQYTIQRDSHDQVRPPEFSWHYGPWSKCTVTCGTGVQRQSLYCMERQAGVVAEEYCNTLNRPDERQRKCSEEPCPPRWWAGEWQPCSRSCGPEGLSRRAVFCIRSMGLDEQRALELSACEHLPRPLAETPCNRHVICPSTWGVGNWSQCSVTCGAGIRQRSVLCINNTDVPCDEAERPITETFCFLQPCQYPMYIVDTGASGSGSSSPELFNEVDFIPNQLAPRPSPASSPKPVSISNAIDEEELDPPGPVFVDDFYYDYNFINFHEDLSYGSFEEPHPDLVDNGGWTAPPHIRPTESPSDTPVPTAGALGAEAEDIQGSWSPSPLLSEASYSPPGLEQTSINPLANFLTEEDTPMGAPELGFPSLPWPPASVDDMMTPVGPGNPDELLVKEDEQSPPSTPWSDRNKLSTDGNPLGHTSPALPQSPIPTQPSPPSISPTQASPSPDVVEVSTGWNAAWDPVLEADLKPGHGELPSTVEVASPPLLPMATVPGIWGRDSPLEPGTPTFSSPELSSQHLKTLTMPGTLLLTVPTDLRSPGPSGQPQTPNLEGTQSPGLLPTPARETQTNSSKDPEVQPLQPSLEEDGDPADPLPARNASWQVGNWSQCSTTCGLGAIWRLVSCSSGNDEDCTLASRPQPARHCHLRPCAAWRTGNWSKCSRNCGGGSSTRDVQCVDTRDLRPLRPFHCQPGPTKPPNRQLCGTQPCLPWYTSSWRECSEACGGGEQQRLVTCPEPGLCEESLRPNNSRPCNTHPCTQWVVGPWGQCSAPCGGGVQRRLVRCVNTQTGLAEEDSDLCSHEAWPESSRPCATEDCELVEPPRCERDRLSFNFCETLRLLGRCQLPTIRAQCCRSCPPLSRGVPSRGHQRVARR
# test.summary: TMT10 TAILS N-terminomics, SMC1 experiment (Ad-mADAMTS7 WT vs EQ vs Luc, technical replicates, trypsin digest)
# Format: cell-based
# assay.conditions: TAILS neo-N-terminal peptide abundance; log fold change, Ad-mADAMTS7 WT over Luc
If the reported logFC.mWT.over.Lux equals or exceeds 2, assign label 1. If not, assign label 0.

| substance | label.class |
| --- | --- |
| LTBP2_485 (SVQIHQVAQVR; listed as Homo sapiens) | label 0 |
| AEBP1_37 (FLEGFLSELEPEPR; listed as Homo sapiens) | label 1 |
| HSPG2_1937 (SSAGQQVAR; listed as Homo sapiens) | label 0 |
| HSPG2_3672 (SFLPLPTIKDAYR; listed as Homo sapiens) | label 0 |
| HSPG2_2688 (VADSGEYVCR; listed as Homo sapiens) | label 1 |
| GALNT2_31 (LAGGAGGGAGR; listed as Homo sapiens) | label 0 |
| COL1A2_305 (LTGAKGAAGLPGVAGAPGLPGPR; listed as Homo sapiens) | label 0 |
| COL1A2_681 (VGAPGPAGATGDR; listed as Homo sapiens) | label 0 |
